Collected Purity values appear next to each entry.
experiment: Assay 1: stability (influencing factor tests: high temperature, high humidity, illumination) of amorphous form and crystal forms I, II, VII; content and purity by HPLC; format: physicochemical; conditions: 25° C./75% ± 5% RH, Day 7
# unit: % | format: bare number

compound	result_units	Purity
CN(C)c1cc(CN2CC3CC3C2)c(O)c2c1C[C@H]1C[C@H]3[C@H](N(C)C)C(O)=C(C(N)=O)C(=O)[C@@]3(O)C(O)=C1C2=O (stereo partly shown) [Crystal form VII]	%	97.1

INPUT: Given CN(C)c1cc(CN2CC3CC3C2)c(O)c2c1C[C@H]1C[C@H]3[C@H](N(C)C)C(O)=C(C(N)=O)C(=O)[C@@]3(O)C(O)=C1C2=O (single isomer, unassigned) [Crystal form II] , state its recorded Purity.
OUTPUT: 96.3

INPUT: Could you share which Purity value was measured for CN(C)c1cc(CN2CC3CC3C2)c(O)c2c1C[C@H]1C[C@H]3[C@H](N(C)C)C(O)=C(C(N)=O)C(=O)[C@@]3(O)C(O)=C1C2=O (stereo partly shown) [Crystal form I] ?
OUTPUT: 98.1

INPUT: Bench note: what Purity did CN(C)c1cc(CN2CC3CC3C2)c(O)c2c1C[C@H]1C[C@H]3[C@H](N(C)C)C(O)=C(C(N)=O)C(=O)[C@@]3(O)C(O)=C1C2=O (stereo partly shown) [Amorphous form] show?
OUTPUT: 97.1

Hello, the source for this data is patent US10633337B2, in case you need it.
